Taken from paper PMC6793842.

B1: unnamed (parent)
chain 1: FENAIKKTKNQENNLTLLPIKSTEEEKDDIKNGKDIKKEIDNDKENIKTNNAKDHSTYIKSYLNTNVNDGLKYLFIPSHNSFIKKYSVFNQINDGMLLNEKNDVKNNEDYKNVDYKNVNFLQYDFKELSNYNIANSIDILQEKEGHLDFVIIPHYTFLDYYKHLSYNSIYHKYSTHGKYIAVDAFIKKINERYDQVKSKCNDIKNDLIATIKKLEHPYDINNKNDDSYRYDISEEIDDKSEETDDETEEVEDSIQDTDSNHTPSNKKKNDLMNRTFKKMMDEYNTKKKKLIKCIKNHENDFNKICMDMKNYGTNLFEQLSCYNNNFCNTNGIRYHYDEYIHKLILSVKSKNLNKDLSDMTNILQQSELLLTNLNKKMGSYIYIDTIKFIHKEMKHIFNRIEYHTKIINDKTKIIQDKIKLNIWRTFQKDELLKRILDMSNEYSLFITSDHLRQMLYNTFYSKEKHLNNIFHHLIYVLQMKFNDVPIKMEYFQTYKKNKPLTQ
chain 2: EPGTVFTTVEDLGSKILLTCSLNDSATEVTGHRWLKGGVVLKEDALPGQKTEFKVDSDDQWGEYSCVFLPEPMGTANIQLHGPPRVKAVKSSEHINEGETAMLVCKSESVPPVTDWAWYKITDSEDKALMNGSESRFFVSSSQGRSELHIENLNMEADPGQYRCNGTSSKGSDQAIITLRVRSHLAAL

- Variants of: B1
- procedure-text: SPR
- condition-info: with partner chain of the complex shown;; read off a plot
property: screen value (s)

[[record]]
mutation_label = "chain 1 Q195K"
unit_tag = "s"
measured = 2.4

[[record]]
mutation_label = "chain 1 Y173S"
unit_tag = "s"
measured = 2.3

[[record]]
mutation_label = "chain 1 Y179C"
unit_tag = "s"
measured = 1.5

[[record]]
mutation_label = "chain 1 R192T"
unit_tag = "s"
measured = 2.3

[[record]]
mutation_label = "chain 1 H176Y"
unit_tag = "s"
measured = 2.4

[[record]]
mutation_label = "chain 1 D124H"
unit_tag = "s"
measured = 2.6

